# EXPERIMENTAL_PROTOCOL: Single ascending oral dose study in healthy volunteers: plasma pharmacokinetics
# Type: in vivo, human
# DETAILS: human, plasma, oral, 25 mg; read-out: AUC0-last, Geometric Mean
ENDPOINT: AUC(0-t) (ng·h/mL)
Answer with a number only, understood to be in ng·h/mL.

Kindly note the recorded AUC(0-t) for Cn1cc(S(=O)(=O)[C@@](C)(F)C2CCN(C(=O)Nc3ccon3)CC2)c(C(F)F)n1 [Compound I] , which is 6920

====

# EXPERIMENTAL_PROTOCOL: Single ascending oral dose study in healthy volunteers: plasma pharmacokinetics
# Assay type: in vivo, human
# DETAILS: human, plasma, oral, 175 mg, 48 Hours Postdose; 175 mg; read-out: Plasma concentration, Mean
ENDPOINT: concentration at 48 h (ng/mL)
Answer with a number only, understood to be in ng/mL.

Kindly note the recorded concentration at 48 h for Cn1cc(S(=O)(=O)[C@@](C)(F)C2CCN(C(=O)Nc3ccon3)CC2)c(C(F)F)n1 , which is 212

====

# EXPERIMENTAL_PROTOCOL: Single ascending oral dose study in healthy volunteers: plasma pharmacokinetics
# Format: in vivo, human
# DETAILS: human, plasma, oral, 10 mg; read-out: Tmax, Geometric Mean
ENDPOINT: Tmax (h)
Answer with a number only, understood to be in h.

Kindly note the recorded Tmax for Cn1cc(S(=O)(=O)[C@@](C)(F)C2CCN(C(=O)Nc3ccon3)CC2)c(C(F)F)n1 , which is 4.8

====

# EXPERIMENTAL_PROTOCOL: Food effect cross-over study, 200 mg (25 mg tablets), healthy volunteers: plasma pharmacokinetics
# Type: in vivo, human
# DETAILS: human, plasma, oral, 2 hours postdose, Fed, read-out: Plasma concentration, Mean
ENDPOINT: concentration at 2 h
A complete answer gives the number and then names the unit.

Kindly note the recorded concentration at 2 h for Cn1cc(S(=O)(=O)[C@@](C)(F)C2CCN(C(=O)Nc3ccon3)CC2)c(C(F)F)n1 [Compound I] , which is 1920 ng/mL

====

# EXPERIMENTAL_PROTOCOL: Single ascending oral dose study in healthy volunteers: plasma pharmacokinetics
# Type: in vivo, human
# DETAILS: human, plasma, oral, 100 mg, 72 Hours Postdose; 100 mg; read-out: Plasma concentration, Mean
ENDPOINT: concentration at 72 h (ng/mL)
Answer with a number only, understood to be in ng/mL.

Kindly note the recorded concentration at 72 h for Cn1cc(S(=O)(=O)[C@@](C)(F)C2CCN(C(=O)Nc3ccon3)CC2)c(C(F)F)n1 [Compound I] , which is 23.2

====

# EXPERIMENTAL_PROTOCOL: Physicochemical and biopharmaceutical properties of the drug substance (PBPK model input)
# DETAILS: human; Caco-2; in vitro measured; read-out: Permeability, Caco-2
ENDPOINT: Papp (×10⁻⁶ cm/s)
Answer with a number only, understood to be in ×10⁻⁶ cm/s.

Kindly note the recorded Papp for Cn1cc(S(=O)(=O)[C@@](C)(F)C2CCN(C(=O)Nc3ccon3)CC2)c(C(F)F)n1 [Compound I] , which is 17.9

====

# EXPERIMENTAL_PROTOCOL: Single ascending oral dose study in healthy volunteers: plasma pharmacokinetics
# Type: in vivo, human
# DETAILS: human, plasma, oral, 50 mg; read-out: AUC0-48, Median
ENDPOINT: AUC(0-t)
A complete answer gives the number and then names the unit.

Kindly note the recorded AUC(0-t) for Cn1cc(S(=O)(=O)[C@@](C)(F)C2CCN(C(=O)Nc3ccon3)CC2)c(C(F)F)n1 [Compound I] , which is 9500 ng·h/mL
